# system under test: T1, EsCas13d, nuclease-dead (Eubacterium siraeum, UniProt B0MS50, R295A;H300A;R849A;H854A)
# T1 sequence: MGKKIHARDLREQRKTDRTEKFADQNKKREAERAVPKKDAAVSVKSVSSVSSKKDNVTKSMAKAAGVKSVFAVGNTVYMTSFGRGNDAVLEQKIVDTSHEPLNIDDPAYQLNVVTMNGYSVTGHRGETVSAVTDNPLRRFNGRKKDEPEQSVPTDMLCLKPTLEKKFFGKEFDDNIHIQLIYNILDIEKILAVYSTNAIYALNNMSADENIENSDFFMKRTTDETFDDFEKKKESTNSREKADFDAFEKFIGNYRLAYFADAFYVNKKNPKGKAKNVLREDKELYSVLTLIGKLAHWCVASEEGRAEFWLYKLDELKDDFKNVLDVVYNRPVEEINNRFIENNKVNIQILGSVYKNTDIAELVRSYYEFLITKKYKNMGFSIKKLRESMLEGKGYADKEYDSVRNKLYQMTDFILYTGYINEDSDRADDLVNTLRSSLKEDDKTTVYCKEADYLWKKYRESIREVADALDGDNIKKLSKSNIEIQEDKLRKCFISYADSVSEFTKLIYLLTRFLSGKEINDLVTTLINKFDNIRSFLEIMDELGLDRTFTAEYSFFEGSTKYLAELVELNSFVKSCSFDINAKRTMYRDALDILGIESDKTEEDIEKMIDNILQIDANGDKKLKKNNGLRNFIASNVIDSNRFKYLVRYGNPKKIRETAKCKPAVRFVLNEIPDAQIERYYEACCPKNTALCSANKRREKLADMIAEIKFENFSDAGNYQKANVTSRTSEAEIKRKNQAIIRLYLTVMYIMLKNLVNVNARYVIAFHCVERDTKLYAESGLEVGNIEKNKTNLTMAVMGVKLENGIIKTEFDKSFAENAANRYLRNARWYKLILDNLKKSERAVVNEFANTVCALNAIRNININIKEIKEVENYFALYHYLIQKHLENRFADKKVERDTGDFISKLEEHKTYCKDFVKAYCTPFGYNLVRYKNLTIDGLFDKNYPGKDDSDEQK
# protocol description: crRNA (strand 1, pre-loaded); Mg2+; 40 mM Tris-HCl pH 7.5, 150 mM NaCl, 6 mM MgCl2, 1 mM DTT, 0.1% Tween-20, 0.2 mg/ml BSA; 25 C; 10 min per concentration, then washed
# experimental parameters: tags: His6-TwinStrep-SUMO cleaved; N-terminal SNAP kept (SNAP-Surface 488); label: 3' end held by stalled T7 RNA polymerase
pKd: −log10 of the molar value.
pKd reference
observed property: pKd

INSERT INTO results (binder, observed_property, meas_value) VALUES
  ('target 1 insC 3'' of 10,insG 3'' of 3 (mixed) RNA 1: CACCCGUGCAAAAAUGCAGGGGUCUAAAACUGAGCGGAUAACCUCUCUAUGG RNA 2: GGGAAUGGAUCCACAUCUACGAAUUCGUACCAUAGAGAGGUUCAUCCGCUGCACCGAGAUCGGAAGAGCACACGU', 'pKd', 8.02),
  ('target 2 MT 5''PFS GUA 3''PFS UUA (mixed) RNA 1: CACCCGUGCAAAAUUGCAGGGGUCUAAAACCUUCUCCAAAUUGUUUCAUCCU RNA 2: GGGAAUGGAUCCACAUCUACGAAUUCGUAAGGAUGAAACAAUUUGGAGAAGUUAAGAUCGGAAGAGCACACGU', 'pKd', 7.66),
  ('target 2 MT 5''PFS ACC 3''PFS CCG (mixed) RNA 1: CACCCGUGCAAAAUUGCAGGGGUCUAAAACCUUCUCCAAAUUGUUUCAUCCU RNA 2: GGGAAUGGAUCCACAUCUACGAAUUCACCAGGAUGAAACAAUUUGGAGAAGCCGAGAUCGGAAGAGCACACGU', 'pKd', 7.92),
  ('target 1 C2A,G13C (mixed) RNA 1: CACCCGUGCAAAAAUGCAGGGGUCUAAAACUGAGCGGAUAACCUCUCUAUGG RNA 2: GGGAAUGGAUCCACAUCUACGAAUUCGUACCAUAGAGACGUUAUCCGCUAACCGAGAUCGGAAGAGCACACGU', 'pKd', 7.30),
  ('target 1 insA 3'' of 12,insA 3'' of 11 (mixed) RNA 1: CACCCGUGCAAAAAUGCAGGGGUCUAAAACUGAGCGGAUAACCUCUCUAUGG RNA 2: GGGAAUGGAUCCACAUCUACGAAUUCGUACCAUAGAGAGGAUAUAUCCGCUCACCGAGAUCGGAAGAGCACACGU', 'pKd', 7.54),
  ('target 1 C21A (mixed) RNA 1: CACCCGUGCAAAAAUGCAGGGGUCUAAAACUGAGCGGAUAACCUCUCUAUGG RNA 2: GGGAAUGGAUCCACAUCUACGAAUUCGUACAAUAGAGAGGUUAUCCGCUCACCGAGAUCGGAAGAGCACACGU', 'pKd', 7.62),
  ('target 1 U11A,A14G (mixed) RNA 1: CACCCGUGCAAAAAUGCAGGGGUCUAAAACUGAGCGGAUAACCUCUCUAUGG RNA 2: GGGAAUGGAUCCACAUCUACGAAUUCGUACCAUAGAGGGGAUAUCCGCUCACCGAGAUCGGAAGAGCACACGU', 'pKd', 7.37),
  ('target 1 insC 3'' of 9,insU 3'' of 2 (mixed) RNA 1: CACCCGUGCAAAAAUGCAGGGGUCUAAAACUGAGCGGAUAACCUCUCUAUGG RNA 2: GGGAAUGGAUCCACAUCUACGAAUUCGUACCAUAGAGAGGUUACUCCGCUCUACCGAGAUCGGAAGAGCACACGU', 'pKd', 7.86);
